Measured values drawn from paper PMC4102417 for this set.

- Tested on: T. cruzi (Tulahuen strain)
- protocol_details: microbe, parasite or virus in culture
- Assay type: cell-based, Trypanosoma cruzi
- particulars: Trypanosoma cruzi, TULAHUEN, Fibroblast, 120 h, intracellular amastigotes, 5 days; separate assays separated by semicolons; read-out: T. cruzi EC50
Mark fulfilled for EC50 under 1000 nM, not fulfilled if at or over.

These recorded examples may help you get a feel for the data.
Q: Hello, is EC50 of the following molecule strictly smaller than 1000 nM? O=C(Cn1ccnc1[N+](=O)[O-])NCc1ccccc1
Result: fulfilled

Q: # strict comparison: is reported EC50 < 1000 nM? input = CCC(C)(C)C(=O)OC1CC(C)C=C2C=CC(C)C(CCC3CC(O)CC(=O)O3)C21 (stereo not shown)
Result: fulfilled

Q: Report whether reported EC50 is lower than 1000 nM (strictly) for NCCC(O)(P(=O)(O)O)P(=O)(O)O [Pamidronate]
Result: not fulfilled

Q: Determine whether this molecule shows EC50 lower than 1000 nM (ties excluded): N=C(N)c1ccc(OCCCCCOc2ccc(C(=N)N)cc2)cc1
Result: fulfilled

Q: Criterion: EC50 strictly below 1000 nM. Is it met by CN(C)CC/C=C1/c2ccccc2Sc2ccc(Cl)cc21 ?
Result: not fulfilled

Q: # TODO verify EC50 < 1000 nM strictly for this molecule: Cl.OC(c1cc(C(F)(F)F)nc2c(C(F)(F)F)cccc12)C1CCCCN1 (stereo not shown)
Result: not fulfilled

We next turn to a different molecule, shown below.
Q: Record CCOC(=O)C1=C(COCCN)NC(C)=C(C(=O)OC)C1c1ccccc1Cl.O=S(=O)(O)c1ccccc1 (stereo not shown) : is its EC50 strictly below 1000 nM?
Result: not fulfilled
